- Assay overview: in vitro
- Condition parameters: human
Quantity name: GI50 at 72 h

According to the records, this molecule Cc1ccc(C(=O)Nc2ccc(S(=O)(=O)O)c3cc(S(=O)(=O)O)cc(S(=O)(=O)O)c23)cc1NC(=O)c1cccc(NC(=O)Nc2cccc(C(=O)Nc3cc(C(=O)Nc4ccc(S(=O)(=O)O)c5cc(S(=O)(=O)O)cc(S(=O)(=O)O)c45)ccc3C)c2)c1 [Suramin, suramin, reference compound] displays GI50 at 72 h of > 100 µM

---

- Tested on: MCF-7 (hormone-responsive breast adenocarcinoma)
- Assay overview: MTT cytotoxicity assay, MCF-7
- Assay type: cell-based, human
Quantity name: pIC50
Scale: negative log10 of molar concentration, which is what pIC50 denotes.

Value of pIC50 reported for the molecule Nc1ncnc2c1ncn2CCC(O)[C]12[CH]3[CH]4[CH]5[CH]1[Mn]45321[P](c2ccccc2)(c2ccccc2)CC[P]1(c1ccccc1)c1ccccc1.[C-]#[O+] (racemic) is 3.98

So, O=C(CCn1cc(F)c(=O)[nH]c1=O)[C]12[CH]3[CH]4[CH]5[CH]1[Mn]4532.[C-]#[O+].[C-]#[O+].[C-]#[O+] (stereo not shown) ? Its pIC50 was 4.15

Lab book: pIC50 of COC(CCn1cnc2c(N(C)C)ncnc21)[C]12[CH]3[CH]4[CH]5[CH]1[Mn]4532.[C-]#[O+].[C-]#[O+].[C-]#[O+] (racemic) noted as 3.95

Note to self: pIC50 recorded for O=c1[nH]c(=O)n(CCC(O)[C]23[CH]4[CH]5[CH]6[CH]2[Mn]5643)cc1F.[C-]#[O+].[C-]#[O+].[C-]#[O+] (racemic) was 3.92

---

- System: A549 (non-small cell lung carcinoma)
- Assay overview: MTT cytotoxicity assay, A549
- Condition parameters: read-out: cytotoxicity IC50, A549; 24 h incubation, MTT; means ± SEM
- Experimental: Anticancer activity of cymantrenes was determined using a panel of human cancer cell lines that were derived from solid tumors. […] Cell viability was determined by the MTT microplate spectrophotometric cytotoxicity test. […] The cytotoxicity of cymantrene derivatives was evaluated by the MTT microplate methods as described elsewhere by incubating the cells with increasing concentrations of tested compounds for 24 h. […]
Entries and their IC50

Answered examples (2):
Entry under test: O=c1[nH]c(=O)n(CCC(O)[C]23[CH]4[CH]5[CH]6[CH]2[Mn]5643[P](c2ccccc2)(c2ccccc2)c2ccccc2)cc1F.[C-]#[O+].[C-]#[O+] (racemic) . Its IC50 was 20.4 µM

Record Nc1ncnc2c1ncn2CCC(O)[C]12[CH]3[CH]4[CH]5[CH]1[Mn]4532[P](c1ccccc1)(c1ccccc1)c1ccccc1.[C-]#[O+].[C-]#[O+] (racemic) . Reported IC50: 23.7 µM

Could you now look at the following compound, please?
Entry under test: O=[C]=[Mn](=[C]=O)(=[C]=O)[CH]1C=CC=C1 [CymH, reference compound] . Its IC50 was 87 µM

---

- System: U87-MG (glioblastoma)
- Assay overview: MTT cytotoxicity assay, U87-MG
- Assay type: cell-based, human
Quantity name: pIC50
The meaning of pIC50 here: minus log10 of the concentration in molar units.

Form field pIC50, entry CCC(=O)[C]12[CH]3[CH]4[CH]5[CH]1[Mn]4532.[C-]#[O+].[C-]#[O+].[C-]#[O+] (stereo not drawn) : 4.08

Let us move to another entry and its pIC50.
pIC50 reported for this compound O=c1[nH]c(=O)n(CCC(O)[C]23[CH]4[CH]5[CH]6[CH]2[Mn]5643)cc1F.[C-]#[O+].[C-]#[O+].[C-]#[O+] (racemic) : 4.00

---

- Test system: MDA-MB-231 (triple negative breast adenocarcinoma)
- Assay overview: MTT cytotoxicity assay, MDA-MB-231
- Format: cell-based, human
- Condition parameters: 24 h incubation, MTT; means ± SEM; read-out: cytotoxicity IC50, MDA-MB-231
Quantity name: IC50 (µM)
Report as a plain number; the unit µM is understood.

// known answers, use as guide
Given the compound O=c1[nH]c(=O)n(CCC(O)[C]23[CH]4[CH]5[CH]6[CH]2[Mn]5643[P](c2ccccc2)(c2ccccc2)c2ccccc2)cc1F.[C-]#[O+].[C-]#[O+] (racemic) [Compound 3] and test system MDA-MB-231 (triple negative breast adenocarcinoma), the measured IC50 is 35.7

MDA-MB-231 (triple negative breast adenocarcinoma) data for O=[C]=[Mn](=[C]=O)(=[C]=O)[CH]1C=CC=C1 [CymH, reference compound] ; its IC50: 68.6

Next compound, IC50 to be filled in.
Known value: MDA-MB-231 (triple negative breast adenocarcinoma) IC50 of the compound Nc1ncnc2c1ncn2CCC(O)[C]12[CH]3[CH]4[CH]5[CH]1[Mn]4532[P](c1ccccc1)(c1ccccc1)c1ccccc1.[C-]#[O+].[C-]#[O+] (racemic) [Compound 5] equals 56

---

In this section we review reported HL-60 MIC values for a set of compounds.
- System: human myeloid leukemia HL-60 cells
- Assay overview: in vitro

Recorded HL-60 MIC, per entry:
Form: compound = O=C(CCn1cc(F)c(=O)[nH]c1=O)[C]12[CH]3[CH]4[CH]5[CH]1[Mn]4532.[C-]#[O+].[C-]#[O+].[C-]#[O+] (stereo not shown) ; HL-60 MIC = 100 µM

Noted for COC(CCn1cc(F)c(=O)n(C)c1=O)[C]12[CH]3[CH]4[CH]5[CH]1[Mn]4532.[C-]#[O+].[C-]#[O+].[C-]#[O+] (racemic) : its HL-60 MIC reads >100 µM

Field HL-60 MIC (entry COC(CCn1cnc2c(N(C)C)ncnc21)[C]12[CH]3[CH]4[CH]5[CH]1[Mn]4532.[C-]#[O+].[C-]#[O+].[C-]#[O+] (racemic) ) reads >100 µM

Attention now shifts to the item below.
The compound listed as O=c1[nH]c(=O)n(CCC(O)[C]23[CH]4[CH]5[CH]6[CH]2[Mn]5643)cc1F.[C-]#[O+].[C-]#[O+].[C-]#[O+] (racemic) shows HL-60 MIC equal to >100 µM

---

- System: MCF-7 (hormone-responsive breast adenocarcinoma)
- Assay overview: MTT cytotoxicity assay, MCF-7
- Assay type: cell-based, human
- Condition parameters: 24 h incubation, MTT; means ± SEM; read-out: cytotoxicity IC50, MCF-7
pIC50 values, listed per item
Scale note: pIC50 = -log10(concentration in M).

// below: answered compounds
Input O=c1[nH]c(=O)n(CCC(O)[C]23[CH]4[CH]5[CH]6[CH]2[Mn]5643[P](c2ccccc2)(c2ccccc2)c2ccccc2)cc1F.[C-]#[O+].[C-]#[O+] (racemic) . Output pIC50: 4.24

The measured pIC50 associated with O=[C]=[Mn](=[C]=O)(=[C]=O)[CH]1C=CC=C1 [CymH, reference compound] reads 4.07

***
Input Nc1ncnc2c1ncn2CCC(O)[C]12[CH]3[CH]4[CH]5[CH]1[Mn]4532[P](c1ccccc1)(c1ccccc1)c1ccccc1.[C-]#[O+].[C-]#[O+] (racemic) . Output pIC50: 3.99

---

- Tested on: S. aureus ATCC 700787 (VISA)
- Assay overview: Antibacterial liquid microdilution (CLSI M07-A8)
- Assay type: cell-based, Staphylococcus aureus
- Condition parameters: 18 to 24 h
Quantity name: MIC, S. aureus ATCC 700787 (VISA)

Past entries and their recorded results:
Item COC(CCn1cc(F)c(=O)n(C)c1=O)[C]12[CH]3[CH]4[CH]5[CH]1[Mn]4532.[C-]#[O+].[C-]#[O+].[C-]#[O+] (racemic) [Compound 4] was tested on S. aureus ATCC 700787 (VISA); the reported MIC, S. aureus ATCC 700787 (VISA) is >512 µg/mL

Entry Nc1ncnc2c1ncn2CCC(O)[C]12[CH]3[CH]4[CH]5[CH]1[Mn]45321[P](c2ccccc2)(c2ccccc2)CC[P]1(c1ccccc1)c1ccccc1.[C-]#[O+] (racemic) [Compound C] : MIC, S. aureus ATCC 700787 (VISA) on S. aureus ATCC 700787 (VISA) = 32 µg/mL

More entries:
Param item: COC(CCn1cnc2c(N(C)C)ncnc21)[C]12[CH]3[CH]4[CH]5[CH]1[Mn]4532.[C-]#[O+].[C-]#[O+].[C-]#[O+] (racemic) [Compound 6] ; param system: S. aureus ATCC 700787 (VISA); output MIC, S. aureus ATCC 700787 (VISA): >512 µg/mL

Entry CCC(=O)[C]12[CH]3[CH]4[CH]5[CH]1[Mn]4532.[C-]#[O+].[C-]#[O+].[C-]#[O+] (centres unmarked) [Compound 7, propionylocymantrene] , tested on S. aureus ATCC 700787 (VISA), has a reported MIC, S. aureus ATCC 700787 (VISA) of >512 µg/mL

The measured MIC, S. aureus ATCC 700787 (VISA) that Nc1ncnc2c1ncn2CCC(O)[C]12[CH]3[CH]4[CH]5[CH]1[Mn]4532[P](c1ccccc1)(c1ccccc1)c1ccccc1.[C-]#[O+].[C-]#[O+] (racemic) [Compound 5] showed for S. aureus ATCC 700787 (VISA) is >256 µg/mL
